Tested on: Diplodia mutila
test.details: Fungicidal activity against Diplodia mutila Q assessed as conidial germination inhibition after 48 hr
Format: functional, organism-based
condition.context: pooled result: one value given for 3 cell lines, strains, targets or settings
value.kind: EC50 (mgAi/L)
Please respond with the number in mgAi/L and leave the unit unwritten.

Study these solved cases before continuing.
>  <molecule>
N#Cc1sc2c(=O)c3ccccc3c(=O)c=2sc1C#N

>  <EC50 [mgAi/L]>
11.39

$$$$
>  <molecule>
COC(=O)Nc1nc2ccccc2[nH]1

>  <EC50 [mgAi/L]>
0.01

$$$$
>  <molecule>
C[Si](Cn1cncn1)(c1ccc(F)cc1)c1ccc(F)cc1

>  <EC50 [mgAi/L]>
0.56

$$$$

Attention now shifts to the item below.
Dear colleague, please send me the reported EC50 for COC(=O)NC(=S)Nc1ccccc1NC(=S)NC(=O)OC [THIOPHANATE METHYL] when you can.
0.29

* * *

Tested on: Neofusicoccum luteum
test.details: Fungicidal activity against Neofusicoccum luteum infected Pinot noir grapevine assessed as pathogen incidence at dieback sites compound applied 24 hr prior inoculation to pruning wound measured after 1 year
Format: functional
Set-up: concentration or dose not given beside the values
We label by threshold. Values of Activity strictly beneath 50% are Satisfied. Values of 50% and up are Not satisfied.

See these solved cases before continuing.
>  <molecule>
OC(c1ccc(Cl)cc1)(c1cncnc1)c1ccccc1Cl (stereo not given)

>  <class.name>
Not satisfied

$$$$
>  <molecule>
COC(=O)Nc1nc2ccccc2[nH]1

>  <class.name>
Satisfied

$$$$
>  <molecule>
CC12CC1(C)C(=O)N(c1cc(Cl)cc(Cl)c1)C2=O (stereo not given)

>  <class.name>
Not satisfied

$$$$
>  <molecule>
COC(=O)NC(=S)Nc1ccccc1NC(=S)NC(=O)OC [THIOPHANATE METHYL]

>  <class.name>
Satisfied

$$$$

Consider the additional molecule presented here.
Does this molecule meet the criterion Activity < 50%? CC(C)(C)C(O)(CCc1ccc(Cl)cc1)Cn1cncn1 (stereo not given)
Satisfied
